The values you see were collected from PubChem BioAssay (NCI).

# Tested on: MCF7 breast
# Experiment: NCI tumour cell line growth inhibition, 48 h
Reported log10(TGI) values for a set of molecules
Field: value | Transform: log10 | Quantity: TGI | Unit: µM

Before answering, review these 4 worked examples.
> print(dat)
                           substance.smiles  value
1               CCOC(=O)c1cccc(NC(=O)CCl)c1   0.83
2  COc1cc2c(cc1OCCCN1CCN(CCCOc3cc4c(cc3OC)C(=O)N3CCC[C@H]3C=N4)CC1)C=CC(C)(C)O2   0.23
3  CN(C)CCCOc1ccccc1NC1=C(Cl)C(=O)C(Nc2ccccc2OCCCN(C)C)=C(Cl)C1=O  -0.40
4  CN(C)CCNc1ccc(C(=O)NCCCN(C)CCCNC(=O)c2ccc(NCCN(C)C)c3c(=O)c4ccccc4[nH]c23)c2[nH]c3ccccc3c(=O)c12  -0.31

Next up:
Given item CCCN(CCC)CCCNCc1cc(I)cc(C)c1O , the value recorded as its log10(TGI) is 1.50

###

# Tested on: SNB-19 CNS
# Experiment: NCI tumour cell line growth inhibition, 48 h; in the data active means GI50 below about 0.43 µM; inactive means the rest
Use one of these outcomes when replying: true (1) for active, false (0) for inactive

Below, 2 compounds whose answers are already recorded.
> print(dat)
                                   compound  classification
1  CC/C(Cc1ccccc1)=C(\c1ccc(OCCN2CCCCCC2)cc1)c1ccc(OC(=O)NCc2ccccc2)cc1       false (0)
2  O=C(/C=C/c1ccc(B(O)O)cc1)/C=C/c1ccc(B(O)O)cc1       false (0)

Tell me the recorded outcome of this test for C=CC(=O)Nc1ccc(Nc2nccc(-c3ccc(N4CCCC4)c(C#N)c3)n2)cc1 .
false (0)

Hi, do you know how C(=Nc1ccccc1)C1CCCC[N-]1.C(=Nc1ccccc1)C1CCCC[N-]1.[Cu+2].[O-][Cl+3]([O-])([O-])O (stereo not drawn) came out in this test?
false (0)

Call for entry CN(C)CCCOc1ccccc1NC1=C(Cl)C(=O)C(Nc2ccccc2OCCCN(C)C)=C(Cl)C1=O :
false (0)

Name the outcome recorded for COc1ccc(C#Cc2ccccc2C#CCCCCO)cc1 in the assay.
false (0)

What was the test verdict on COc1ccc(-c2[nH]ncc2-c2cc3c(c(OC)c2)OCC(=O)N3)cc1 ?
false (0)

Dear all, I need the recorded test outcome for Cc1c2cnccc2c(C)c2c1c1cc(C3OCCCO3)ccc1n2C , thank you.
true (1)

###

# System: SF-268 CNS
# Experiment: NCI tumour cell line growth inhibition, 48 h
Measured GI50, listed per entry for reference.

Noted for O=C(c1ccccc1)c1c(NCC(O)CN2CCCC2)n(Cc2ccccc2)c(=O)n(Cc2ccccc2)c1=O (stereo not given) : its GI50 reads 19.6 µM

# GI50 of O=[N+]([O-])c1ccc(Nc2ccccc2-c2ccccc2)c2nonc12 = 14.9 µM

Looking up CC1=NN(C(=O)c2ccccc2O)C(=O)/C1=C/c1ccc([N+](=O)[O-])cc1 , I see its GI50 listed as 0.444 µM

Reported GI50 ( O=C(Nc1ccc(Cl)cc1Cl)c1ccc(NC2=C(Cl)C(=O)N(Cc3ccccc3)C2=O)cc1 ) = 16.5 µM

Measured GI50 of CC(=O)N1CCN(C2=Nc3ccccc3CO2)C1=S : > 100 µM
